Attribution: ChEMBL document CHEMBL5058564

System: Fibroblast
EXPERIMENT_SUMMARY: Incucyte cell viability with human fibroblast; also: unitless GR value; below 1 slowed growth and below 0 cell loss
Type: toxicity, cell-based
TEST_CONTEXT: 18 h, 10 µM, compound concentration 10 uM, replicate number 2, timepoint 18 hours
QUANTITY_KIND: Growth Rate
Reply with the value as a number alone.

Here are 3 molecules together with their reported answers.
CN(C)C(=O)Cn1cc(-c2ccc(-c3cncc4ccccc34)cc2)cn1; 0.82
COc1ccc2[nH]c(I)c(CCNC(C)=O)c2c1 [IODOMELATONIN]; 0.79
N[C@@]1(C(=O)O)CC[C@H]2[C@H](C(=O)O)[C@H]21; 0.79

Please find the next molecule below.
Reported Growth Rate ( CC(=O)NCC(=O)N1[C@@H]2CC[C@H]1c1ccc(Nc3ncc(C(F)(F)F)c(NC4CCC4)n3)cc12 [PF-03814735] ) = 0.79
